Quick reference: drug sensitivity score of the listed items.
Test system: YST-1
Assay: drug sensitivity score (DSS, CellTiter-Glo viability, 72 h) (DSS (dimensionless)); higher = more sensitive; extreme values may be limits of the assay

compound: O=C(c1ccc(F)c(F)c1Nc1ccc(I)cc1F)N1CC(O)([C@@H]2CCCCN2)C1 [Cobimetinib] (max concentration tested 1000 nM)
drug sensitivity score: 0
--
compound: CS(=O)(=O)N1CCN(Cc2cc3nc(-c4cccc5[nH]ncc45)nc(N4CCOCC4)c3s2)CC1 [Pictilisib] (max concentration tested 10000 nM)
drug sensitivity score: 14.6
--
compound: N#CCNC(=O)c1ccc(-c2ccnc(Nc3ccc(N4CCOCC4)cc3)n2)cc1 [Momelotinib] (max concentration tested 10000 nM)
drug sensitivity score: 5.7
--
compound: C[C@]12C=CC(=O)C=C1CC[C@@H]1[C@@H]2[C@@H](O)C[C@@]2(C)[C@H]1CC[C@]2(O)C(=O)CO [Prednisolone] (max concentration tested 10000 nM)
drug sensitivity score: 0.25

---

Test system: HS-PSS
Test: % inhibition of CellTiter-Glo viability at highest tested concentration (72 h), relative to DMSO and benzethonium chloride controls; higher = more inhibition
Quick reference for % inhibition among some compounds
readout_label: % inhibition (%)

compound: CCc1c2c(nc3ccc(OC(=O)N4CCC(N5CCCCC5)CC4)cc13)-c1cc3c(c(=O)n1C2)COC(=O)[C@]3(O)CC [Irinotecan] (max concentration tested 10000 nM)
assay_value: 58.3

compound: COC[C@H](NC(=O)c1cnc(C)s1)C(=O)N[C@@H](COC)C(=O)N[C@@H](Cc1ccccc1)C(=O)[C@@]1(C)CO1 [Oprozomib] (max concentration tested 2500 nM)
assay_value: 98.3

compound: O=C1c2c(O)ccc(O)c2C(=O)c2c(NCCNCCO)ccc(NCCNCCO)c21 [Mitoxantrone] (max concentration tested 1000 nM)
assay_value: 28.8

compound: CNC(=O)[C@@H](NC(=O)[C@H](CC(C)C)[C@H](O)C(=O)NO)C(C)(C)C [Marimastat] (max concentration tested 10000 nM)
assay_value: -7.14

compound: Cn1cc(C[C@@H](N)C(=O)O)c2ccccc21 [1-methyl-D-tryptophan] (max concentration tested 5000 nM)
assay_value: 6.24

compound: Nc1ccccc1NC(=O)c1ccc(CNc2nccc(-c3cccnc3)n2)cc1 [Mocetinostat] (max concentration tested 10000 nM)
assay_value: 88

---

Test system: STS26T
Assay: relative IC50 (inflection point of fitted dose-response curve, CellTox-Green cytotoxicity, 72 h; top asymptote may be below 50%); higher = less potent

compound: O=C(O)CC[C@H]1CC[C@@](c2cc(F)ccc2F)(S(=O)(=O)c2ccc(Cl)cc2)CC1 [MK-0752]
relative IC50: > 1 µM
--
compound: CO[C@H]1C[C@@H]2CC[C@@H](C)[C@@](O)(O2)C(=O)C(=O)N2CCCC[C@H]2C(=O)O[C@H]([C@H](C)C[C@@H]2CC[C@@H](OC(=O)C(C)(CO)CO)[C@H](OC)C2)CC(=O)[C@H](C)/C=C(\C)[C@@H](O)[C@@H](OC)C(=O)[C@H](C)C[C@H](C)/C=C/C=C/C=C/1C [Temsirolimus]
relative IC50: > 0.1 µM
--
compound: O=C(O)CCCc1ccc(N(CCCl)CCCl)cc1 [Chlorambucil]
relative IC50: > 10 µM

---

Test system: YST-1
Assay: relative IC50 (inflection point of fitted dose-response curve, CellTiter-Glo viability, 72 h; top asymptote may be below 50% inhibition); higher = less potent

compound: O=P1(N(CCCl)CCCl)NCCCO1 (configuration not stated) [Cyclophosphamide]
relative IC50: > 40000 nM
//
compound: CCc1cnn2c(NCc3ccc[n+]([O-])c3)cc(N3CCCC[C@H]3CCO)nc12
relative IC50: 7.48 nM
//
compound: CN1CC[C@H](c2c(O)cc(O)c3c(=O)cc(-c4ccccc4Cl)oc23)[C@H](O)C1
relative IC50: 185 nM
//
compound: CN(C)CCN1C(=O)c2cccc3cc(N)cc(c23)C1=O [Amonafide]
relative IC50: 1020 nM
//
compound: Nc1ccn([C@@H]2O[C@H](CO)[C@@H](O)C2(F)F)c(=O)n1
relative IC50: 8.34 nM
//
compound: Cc1cnc(Nc2ccc(OCCN3CCCC3)cc2)nc1Nc1cccc(S(=O)(=O)NC(C)(C)C)c1
relative IC50: 1520 nM
//
compound: CNC(=O)[C@@H](NC(=O)[C@H](CC(C)C)[C@H](O)C(=O)NO)C(C)(C)C
relative IC50: > 10000 nM
//
compound: COc1cc2c(N3CCN(C(=O)Nc4ccc(OC(C)C)cc4)CC3)ncnc2cc1OCCCN1CCCCC1
relative IC50: > 1000 nM
//
compound: CC(C)c1cc(C(=O)N2Cc3ccc(CN4CCN(C)CC4)cc3C2)c(O)cc1O
relative IC50: 105 nM
//
compound: COc1ccc(C2=N[C@@H](c3ccc(Cl)cc3)[C@@H](c3ccc(Cl)cc3)N2C(=O)N2CCNC(=O)C2)c(OC(C)C)c1
relative IC50: 1410 nM
//
compound: CNC(=O)c1ccccc1Sc1ccc2c(/C=C/c3ccccn3)n[nH]c2c1
relative IC50: 972 nM
//
compound: CO[C@H]1[C@@H](N(C)C(=O)c2ccccc2)C[C@@H]2O[C@@]1(C)n1c3ccccc3c3c4c(c5c6ccccc6n2c5c31)C(=O)NC4
relative IC50: 163 nM
//
compound: CC[C@@H]1C(=O)OC[C@@H]1Cc1cncn1C
relative IC50: > 40000 nM
//
compound: NS(=O)(=O)OC[C@@H]1C[C@@H](n2ccc3c(N[C@H]4CCc5ccccc54)ncnc32)C[C@@H]1O
relative IC50: 128 nM
//
compound: FC(F)(F)c1ccc(/C=C/c2nc(COc3ccc(CCCCn4ccnn4)cc3)co2)cc1
relative IC50: 6.05 nM
//
compound: Cc1ccccc1C(C(=O)NC1CCCCC1)N(C(=O)Cn1ccnc1C)c1cccc(F)c1 (configuration not stated)
relative IC50: > 10000 nM
//
compound: CCN(CCO)CCCOc1ccc2c(Nc3cc(CC(=O)Nc4cccc(F)c4)[nH]n3)ncnc2c1
relative IC50: 5.7 nM
//
compound: CN(c1ncccc1CNc1nc(Nc2ccc3c(c2)CC(=O)N3)ncc1C(F)(F)F)S(C)(=O)=O
relative IC50: 2010 nM
//
compound: O=C(O)c1ccc(O)c2ncccc12
relative IC50: 36600 nM
//
compound: CCc1c2c(nc3ccc(O)cc13)-c1cc3c(c(=O)n1C2)COC(=O)[C@]3(O)CC
relative IC50: 4.63 nM
//
compound: CN(C)Cc1ccc(S(=O)(=O)n2ccc(/C=C/C(=O)NO)c2)cc1
relative IC50: 578 nM
//
compound: C=CC(=O)Nc1cccc(Nc2nc(Nc3ccc(N4CCN(C(C)=O)CC4)cc3OC)ncc2C(F)(F)F)c1
relative IC50: 1610 nM
//
compound: Nc1ccccc1NC(=O)c1ccc(CNc2nccc(-c3cccnc3)n2)cc1
relative IC50: 530 nM
//
compound: O=C(NOC[C@H](O)CO)c1ccc(F)c(F)c1Nc1ccc(I)cc1F
relative IC50: > 1000 nM
//
compound: O=NN(CCCl)C(=O)NCCCl
relative IC50: > 10000 nM
//
compound: C=CC[C@@H]1/C=C(\C)C[C@H](C)C[C@H](OC)[C@H]2O[C@@](O)(C(=O)C(=O)N3CCCC[C@H]3C(=O)O[C@H](/C(C)=C/[C@@H]3CC[C@@H](O)[C@H](OC)C3)[C@H](C)[C@@H](O)CC1=O)[C@H](C)C[C@@H]2OC
relative IC50: > 10000 nM
//
compound: C[C@@H](Oc1cc(-n2cnc3ccc(CN4CCN(C)CC4)cc32)sc1C(N)=O)c1ccccc1C(F)(F)F
relative IC50: 20.9 nM

---

System: HS-PSS
Assay: % inhibition of CellTiter-Glo viability at highest tested concentration (72 h), relative to DMSO and benzethonium chloride controls; higher = more inhibition
Criterion: % inhibition meeting or surpassing 20%. Met: t. Not met: f.

compound: CCCS(=O)(=O)Nc1ccc(F)c(C(=O)c2c[nH]c3ncc(-c4ccc(Cl)cc4)cc23)c1F [Vemurafenib] (max concentration tested 10000 nM)
group: t
--
compound: COc1cccc(OCCCN)c1-c1cc(Nc2cnc(C#N)cn2)n[nH]1 [Prexasertib] (max concentration tested 10000 nM)
group: t
--
compound: CN(C)C(=O)c1ccc(S(=O)(=O)c2ccc(NC(=O)[C@@](C)(O)C(F)(F)F)c(Cl)c2)cc1 [AZD7545] (max concentration tested 10000 nM)
group: t
--
compound: O=C(NOCCO)c1ccc2cncn2c1Nc1ccc(I)cc1F [GDC-0623] (max concentration tested 2500 nM)
group: t
--
compound: NC1(c2ccc(-c3nc4ccn5c(=O)[nH]nc5c4cc3-c3ccccc3)cc2)CCC1 [MK-2206] (max concentration tested 1000 nM)
group: f
--
compound: CC(C)n1cnc2c(NCCc3ccc(O)cc3)nc(-c3csc4ccccc34)nc21 [StemRegenin 1] (max concentration tested 10000 nM)
group: t
--
compound: CCC1=C[C@@H]2CN(C1)Cc1c([nH]c3ccccc13)[C@@](C(=O)OC)(c1cc3c(cc1OC)N(C)[C@H]1[C@@](O)(C(=O)OC)[C@H](OC(C)=O)[C@]4(CC)C=CCN5CC[C@]31[C@@H]54)C2 [Vinorelbine] (max concentration tested 10000 nM)
group: t
--
compound: C#Cc1cccc(Nc2ncnc3cc4c(cc23)OCCOCCOCCO4)c1 [Icotinib] (max concentration tested 10000 nM)
group: f
--
compound: CC(=O)N(O)CCCCCNC(=O)CCC(=O)N(O)CCCCCNC(=O)CCC(=O)N(O)CCCCCN [Deferoxamine] (max concentration tested 10000 nM)
group: t
--
compound: C[C@H]1Oc2cc(cnc2N)-c2c(nn(C)c2C#N)CN(C)C(=O)c2ccc(F)cc21 (max concentration tested 1000 nM)
group: t
--
compound: C[C@@]1(C(=O)Nc2ccc(F)nc2)CCCN1c1nc(Nc2cc(C3CC3)n[nH]2)c2cccn2n1 (max concentration tested 10000 nM)
group: t
--
compound: O=C(Nc1ccc(OC(F)(F)F)cc1)c1sccc1NCc1ccnc2ccccc12 [OSI-930] (max concentration tested 2500 nM)
group: t
--
compound: COc1ccc(Cn2ccc3ccc(C(=O)NO)cc32)cc1 (max concentration tested 10000 nM)
group: f
--
compound: O=C(c1cccc(Cl)c1F)N1CCN(Cc2cccc(Nc3nccs3)n2)CC1 [MK-8745] (max concentration tested 2500 nM)
group: f
--
compound: CCC/C=C/C=C/C(=O)O[C@H]1/C(=C/C(=O)OC)C[C@H]2C[C@H]([C@@H](C)O)OC(=O)C[C@H](O)C[C@@H]3C[C@H](OC(C)=O)C(C)(C)[C@](O)(C[C@@H]4C/C(=C/C(=O)OC)C[C@H](/C=C/C(C)(C)[C@]1(O)O2)O4)O3 [Bryostatin 1] (max concentration tested 100 nM)
group: f
